# tgt: recombinant HA of H1N1 A/New Caledonia/20/1999 (influenza A virus, UniProt Q289M7 18-565)
# assay.name: biolayer interferometry (Octet), steady-state fit, geometric mean
readout: Kd (nM)
Form entry: value (nM) — number only.

binder	Kd / nM
MD1212 (VHH) EVQLVESGGGLVQPGGSLRLSCAVSISIFDIYAMDWYRQAPGKQRDLVATSFRDGSTNYADSVKGRFTISRDNAKNTLYLQMNSLKPEDTAVYLCHVSLYRDPLGVAGGMGVYWGKGALVTVSSAAAGGGGSGGGGSGGGGSGGGGSGGGGSGGGGSGGGGSEVQLVESGGGLVQPGGSLRLSCAVSISIFDIYAMDWYRQAPGKQRDLVATSFRDGSTNYADSVKGRFTISRDNAKNTLYLQMNSLKPEDTAVYLCHVSLYRDPLGVAGGMGVYWGKGALVTVSS	1.4

Recorded result, MD1211 (bispecific antibody) EVQLVESGGGLVQPGGSLRLSCAVSISIFDIYAMDWYRQAPGKQRDLVATSFRDGSTNYADSVKGRFTISRDNAKNTLYLQMNSLKPEDTAVYLCHVSLYRDPLGVAGGMGVYWGKGALVTVSSAAAGGGGSGGGGSGGGGSGGGGSGGGGSGGGGSGGGGSEVQLVESGGGLVQAGGSLKLSCAASGRTYAMGWFRQAPGKEREFVAHINALGTRTYYSDSVKGRFTISRDNAKNTEYLEMNNLKPEDTAVYYCTAQGQWRAAPVAVAAEYEFWGQGTQVTVSS , Kd: 1.7

GET /value?item= MD1210 (bispecific antibody) EVQLVESGGGLVQAGGSLKLSCAASGRTYAMGWFRQAPGKEREFVAHINALGTRTYYSDSVKGRFTISRDNAKNTEYLEMNNLKPEDTAVYYCTAQGQWRAAPVAVAAEYEFWGQGTQVTVSSAAAGGGGSGGGGSGGGGSGGGGSGGGGSGGGGSGGGGSEVQLVESGGGLVQPGGSLRLSCAVSISIFDIYAMDWYRQAPGKQRDLVATSFRDGSTNYADSVKGRFTISRDNAKNTLYLQMNSLKPEDTAVYLCHVSLYRDPLGVAGGMGVYWGKGALVTVSS &field=Kd returns 0.7

response.value for MD1209 (VHH) EVQLVESGGGLVQAGGSLKLSCAASGRTYAMGWFRQAPGKEREFVAHINALGTRTYYSDSVKGRFTISRDNAKNTEYLEMNNLKPEDTAVYYCTAQGQWRAAPVAVAAEYEFWGQGTQVTVSSAAAGGGGSGGGGSGGGGSGGGGSGGGGSGGGGSGGGGSEVQLVESGGGLVQAGGSLKLSCAASGRTYAMGWFRQAPGKEREFVAHINALGTRTYYSDSVKGRFTISRDNAKNTEYLEMNNLKPEDTAVYYCTAQGQWRAAPVAVAAEYEFWGQGTQVTVSS (field: Kd) = 1.9

Values compiled from patent US20190359693A1.
